Target: T1, Jo-1 (UniProt P12081)
T1 sequence (looked up): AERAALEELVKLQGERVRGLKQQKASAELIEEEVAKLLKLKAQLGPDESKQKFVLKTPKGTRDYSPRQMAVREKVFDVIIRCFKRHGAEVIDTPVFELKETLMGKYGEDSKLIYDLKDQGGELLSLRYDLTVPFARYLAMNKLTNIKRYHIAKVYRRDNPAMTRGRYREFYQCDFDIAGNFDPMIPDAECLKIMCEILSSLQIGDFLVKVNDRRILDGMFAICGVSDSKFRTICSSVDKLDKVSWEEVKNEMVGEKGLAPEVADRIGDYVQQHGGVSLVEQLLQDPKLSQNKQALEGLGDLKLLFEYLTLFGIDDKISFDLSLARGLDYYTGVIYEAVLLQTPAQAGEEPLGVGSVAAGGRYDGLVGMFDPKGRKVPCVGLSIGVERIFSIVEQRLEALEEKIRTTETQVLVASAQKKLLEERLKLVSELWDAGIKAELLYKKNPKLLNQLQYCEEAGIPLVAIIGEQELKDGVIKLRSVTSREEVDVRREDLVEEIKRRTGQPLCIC
Test: AtheNA, Ab 25 ug/ml
Each record here notes measured Athena reading (relative luminescence units).
// return just the number, without any unit appended

Dear colleague, please send me the reported Athena reading (relative luminescence units) for CH241 (antibody, from a related filing, V domains shown) VH: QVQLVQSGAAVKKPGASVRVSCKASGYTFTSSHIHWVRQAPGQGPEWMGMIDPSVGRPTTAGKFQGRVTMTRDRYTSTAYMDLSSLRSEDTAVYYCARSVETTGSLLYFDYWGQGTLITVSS VL: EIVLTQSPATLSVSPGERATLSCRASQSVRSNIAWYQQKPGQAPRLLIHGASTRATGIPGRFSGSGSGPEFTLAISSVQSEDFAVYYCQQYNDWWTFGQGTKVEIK when you can.
5

Dear colleague, please send me the reported Athena reading (relative luminescence units) for CH236_4A/293i (antibody, from a related filing, V domains shown) VH: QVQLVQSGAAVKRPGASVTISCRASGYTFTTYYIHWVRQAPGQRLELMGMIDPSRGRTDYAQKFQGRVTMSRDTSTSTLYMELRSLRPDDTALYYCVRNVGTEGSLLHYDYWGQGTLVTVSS VL: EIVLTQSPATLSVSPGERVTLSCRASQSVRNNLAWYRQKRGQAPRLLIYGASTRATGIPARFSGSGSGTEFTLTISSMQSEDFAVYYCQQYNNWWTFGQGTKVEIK when you can.
72

Dear colleague, please send me the reported Athena reading (relative luminescence units) for CH239_4A/293i (antibody, from a related filing, V domains shown) VH: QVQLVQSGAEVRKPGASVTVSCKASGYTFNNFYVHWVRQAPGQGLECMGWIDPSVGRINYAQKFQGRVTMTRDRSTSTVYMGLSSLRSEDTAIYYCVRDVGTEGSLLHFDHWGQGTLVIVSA VL: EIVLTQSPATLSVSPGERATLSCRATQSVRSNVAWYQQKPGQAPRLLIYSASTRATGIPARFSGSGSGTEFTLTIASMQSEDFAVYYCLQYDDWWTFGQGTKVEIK when you can.
11

Dear colleague, please send me the reported Athena reading (relative luminescence units) for CH240_4A/293i (antibody, from a related filing, V domains shown) VH: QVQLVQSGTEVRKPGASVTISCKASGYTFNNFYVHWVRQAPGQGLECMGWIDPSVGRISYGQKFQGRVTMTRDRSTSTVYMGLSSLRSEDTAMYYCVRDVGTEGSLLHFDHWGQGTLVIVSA VL: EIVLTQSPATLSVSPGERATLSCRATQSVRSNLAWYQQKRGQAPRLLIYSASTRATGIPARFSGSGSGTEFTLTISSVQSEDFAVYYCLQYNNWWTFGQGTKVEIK when you can.
11
